Readings of z-score for the listed compounds
Test: HepG2 liver cancer cell viability effects, profiling panel, resazurin fluorescence, 24 h, PK04 Diversity Set (AID 1172); note: test concentration not given here
Details: higher = more signal
Please state the value as a number alone, without comment.

Some compounds with known z-score results, for comparison:
>  <compound>
C=CCC(OC(C)=O)[C@@H]1[C@@H](N(Cc2ccc(-c3ccccc3)cc2)C(=O)Cc2ccc(OC)cc2)c2cc(OCCCO)ccc2N1C(=O)Cc1ccc2ccccc2c1 (some centres undefined)

>  <z-score>
-0.978

$$$$
>  <compound>
Cc1ccc(S[C@]2(C(=O)NCCCN(C)C)CC(=O)N(Cc3cc(C(F)(F)F)cc(C(F)(F)F)c3)[C@@H]2c2ccc(CO)cc2)cc1

>  <z-score>
-0.144

$$$$
>  <compound>
CCCC[C@H]1OB(O)C[C@H]2C1=C(COC)Cn1c(=O)n(-c3ccccc3)c(=O)n12

>  <z-score>
-0.248

$$$$

Dear colleague, I am looking for the recorded z-score of the following compound: CCOC(=O)C[C@H]1[C@H](OC(=O)c2ccc(C(=O)c3ccccc3)cc2)[C@@H](NC(=O)c2ccccc2)c2cc(OCCCO)ccc2N1C(=O)Cc1ccc(OC)cc1
0.844
